Each recorded value in this set is attributed to patent US12673954B2.

# Test system: NF-κB pathway, THP1-Dual™ cells
# assayRemarks: STING reporter assay in THP1-Dual cells, NF-κB pathway (SEAP, QUANTI-Blue)
# Format: cell-based, human
# runConditions: Homo sapiens, THP1-Dual, 20 h, THP1-Dual cells, 10% human plasma, 20 hours; SEAP; 100% activation = 100 μM cGAMP; read-out: NFkB (EC50 μM)
recordedMetric: EC50 (µM)

I = COC(=O)c1ccc(C)c2cc(Cn3cnc4ccncc4c3=O)oc12
II = COC(=O)c1ccc(F)c2cc(CNC(=O)c3cnn4cccnc34)oc12
III = Cc1cc(C(=O)OCC(F)(F)F)c2oc(CNC(=O)c3cnn4cccnc34)c(Cl)c2c1
Please rank the 3 items above; order by EC50, the highest number leading. Give your ranking as a list of the labels in the requested order.
I, II, III
